System: S. cerevisiae NKY1551 his4x/his4B, sporulating;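 further: active if sensitivity score above 5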
Measurement protocol: HIS4 meiotic recombination assay sensitivity score (z-score vs DMSO controls); higher = stronger inhibition of sporulation/recombination, active = hit call of the paper
Where a name gives a salt, the structure may show the parent alone.
Observed property: HIS4 meiotic recombination assay sensitivity score

So what does the record say about HIS4 meiotic recombination assay sensitivity score for COc1ccccc1OCC(O)CN1CCN(CC(=O)Nc2c(C)cccc2C)CC1 (stereo not drawn) [Ranolazine dihydrochloride] (stock concentration (mM, diluted 1:100): 8.6) ?
-1.05 (inactive)

So what does the record say about HIS4 meiotic recombination assay sensitivity score for CC(C)[C@H]1CC[C@H](C(=O)N[C@H](Cc2ccccc2)C(=O)O)CC1 [Nateglinide] (stock concentration (mM, diluted 1:100): 10) ?
-0.37 (inactive)

So what does the record say about HIS4 meiotic recombination assay sensitivity score for CC(=O)[C@]1(O)Cc2c(O)c3c(c(O)c2[C@@H](O[C@H]2C[C@H](N)[C@H](O)[C@H](C)O2)C1)C(=O)c1ccccc1C3=O [Idarubicin hydrochloride] (stock concentration (mM, diluted 1:100): 9.3) ?
-2.94 (inactive)

So what does the record say about HIS4 meiotic recombination assay sensitivity score for COC(=O)Nc1nc2cc(C(=O)c3ccc(F)cc3)ccc2[nH]1 [Flubendazole] (stock concentration (mM, diluted 1:100): 10) ?
-2.01 (inactive)

So what does the record say about HIS4 meiotic recombination assay sensitivity score for O=C1c2c(O)cc(O)cc2OC(c2ccc(O)c(O)c2)C1O (stereo not drawn) [Taxifolin] (stock concentration (mM, diluted 1:100): 10.1) ?
-0.52 (inactive)

So what does the record say about HIS4 meiotic recombination assay sensitivity score for COc1cc(C(=O)NS(=O)(=O)c2ccccc2C)ccc1Cc1cn(C)c2ccc(NC(=O)OC3CCCC3)cc12 [Zafirlukast] (stock concentration (mM, diluted 1:100): 10) ?
1 (inactive)

So what does the record say about HIS4 meiotic recombination assay sensitivity score for Nc1ccc(O)c(C(=O)O)c1 [Mesalamine] (stock concentration (mM, diluted 1:100): 10) ?
-2.13 (inactive)

Let us examine a further case.
So what does the record say about HIS4 meiotic recombination assay sensitivity score for Cc1[nH]c(=O)c(C#N)cc1-c1ccncc1 [Milrinone] (stock concentration (mM, diluted 1:100): 10.1) ?
-0.23 (inactive)
